src = patent US20250041306A1

- System: Human Small Cell Lung Cancer H69
- procedure.summary: Cell proliferation experiment (Alarm blue), H69
- Format: cell-based
- applied.conditions: 72 h
- Procedure: The cells were cultured in conventional ways, and the cells should be passed for at least 2 generations before plating. Cells at the logarithmic growth phase were collected, prepared into single cell suspensions and counted. […] The fluorescence intensity of each well was detected using the Alarm blue method, and IC50 was calculated. IC50 was calculated according to the following formula: […]
pEC50: −log10 of the molar value.
measured.property: pEC50

* CNC(=O)c1ccccc1Nc1nc(Nc2ccc(N3CCN(C(=O)N[C@H]4CC[C@@H](N(CCC#Cc5ccc6c(c5)CN(C5CCC(=O)NC5=O)C6=O)C(=O)OCCSSC[C@H](NC(=O)[C@H](CC(=O)O)NC(=O)[C@H](CC(=O)O)NC(=O)[C@H](CCCNC(=N)N)NC(=O)[C@H](CC(=O)O)NC(=O)CCC(NC(=O)c5ccc(NCc6cnc7nc(N)[nH]c(=O)c7n6)cc5)C(=O)O)C(=O)O)CC4)CC3)cc2)ncc1Cl (stereo partly shown) | < 6.00

###

- Tested on: Human Colon Cancer cells Colo205
- procedure.summary: Cell proliferation experiment (Alarm blue), Colo205
- Assay type: cell-based
- applied.conditions: Homo sapiens, COLO 205; Colo205 cells, 72 h culture; read-out: Anti cell proliferative activity EC50, Colo205
pEC50: −log10 of the molar value.
Catalogue of pEC50 readings, one per entry.
measured.property: pEC50

• CNC(=O)c1ccccc1Nc1nc(Nc2ccc(N3CCN(C(=O)N[C@H]4CC[C@@H](N(CCC#Cc5ccc6c(c5)CN(C5CCC(=O)NC5=O)C6=O)C(=O)OCc5ccc(NC(=O)[C@H](CC(N)=O)NC(=O)[C@H](C)NC(=O)[C@H](C)NC(=O)COCCOCCOCCOC)cc5)CC4)CC3)cc2)ncc1Cl (stereo partly drawn) = 7.12
• CNC(=O)c1ccccc1Nc1nc(Nc2ccc(N3CCN(C(=O)NC4CCN(C(=O)CNCCC#Cc5ccc6c(c5)CN(C5CCC(=O)NC5=O)C6=O)CC4)CC3)cc2)ncc1Cl (stereo not drawn) = 6.84
• NC(=O)c1ccccc1Nc1nc(Nc2ccc(N3CCN([C@H]4CC[C@@H](NCCC#Cc5ccc6c(c5)CN(C5CCC(=O)NC5=O)C6=O)CC4)CC3)cc2)ncc1Cl (stereo partly drawn) = 6.14

###

- System: human gastric carcinoma cells N87
- procedure.summary: Cell proliferation experiment (Alarm blue), N87
- Type: cell-based
- applied.conditions: N87 cells, 72 h culture; read-out: Anti cell proliferative activity EC50, N87
pEC50: −log10 of the molar value.
Catalogue of pEC50 readings, one per entry.
measured.property: pEC50

• CNC(=O)c1ccccc1Nc1nc(Nc2ccc(N3CCN(C(=O)NC4CCC(N(CCC#Cc5ccc6c(c5)CN(C5CCC(=O)NC5=O)C6=O)C(=O)OCc5ccc(NC(=O)[C@H](CC(N)=O)NC(=O)[C@H](C)NC(=O)[C@H](C)NC(=O)CCCCCN6C(=O)CC(SC[C@H](N)C(=O)N[C@H](Cc7ccccc7)C(=O)N[C@H]7CSSC[C@@H](C(=O)N[C@H](CO)[C@@H](C)O)NC(=O)[C@H]([C@@H](C)O)NC(=O)[C@H](CCCCN)NC(=O)[C@@H](Cc8c[nH]c9ccccc89)NC(=O)[C@H](Cc8ccccc8)NC7=O)C6=O)cc5)CC4)CC3)cc2)ncc1Cl (stereo partly shown) [UB-181247] = 6.77
• CNC(=O)c1ccccc1Nc1nc(Nc2ccc(N3CCN(C(=O)N[C@H]4CC[C@@H](N(CCC#Cc5ccc6c(c5)CN(C5CCC(=O)NC5=O)C6=O)C(=O)OCc5ccc(NC(=O)[C@H](CCCNC(N)=O)NC(=O)[C@@H](NC(=O)CCCCCN6C(=O)CC(SC[C@H](N)C(=O)N[C@H](Cc7ccccc7)C(=O)N[C@H]7CSSC[C@@H](C(=O)N[C@H](CO)[C@@H](C)O)NC(=O)[C@H]([C@@H](C)O)NC(=O)[C@H](CCCCN)NC(=O)[C@@H](Cc8c[nH]c9ccccc89)NC(=O)[C@H](Cc8ccccc8)NC7=O)C6=O)C(C)C)cc5)CC4)CC3)cc2)ncc1Cl (stereo partly shown) [UB-181246] = 6.29
• C[C@H](NC(=O)CCCCCN1C(=O)CC(SC[C@H](N)C(=O)N[C@@H](Cc2ccccc2)C(=O)N[C@H]2CSSC[C@@H](C(=O)N[C@H](CO)[C@@H](C)O)NC(=O)[C@H]([C@@H](C)O)NC(=O)[C@H](CCCCN)NC(=O)[C@@H](Cc3c[nH]c4ccccc34)NC(=O)[C@H](Cc3ccccc3)NC2=O)C1=O)C(=O)N[C@@H](C)C(=O)N[C@@H](CC(N)=O)C(=O)Nc1ccc(COC(=O)N(CCC#Cc2ccc3c(c2)CN(C2CCC(=O)NC2=O)C3=O)C2CCC(NC(=O)N3CCN(c4ccc(Nc5ncc(Cl)c(Nc6ccccc6C(N)=O)n5)cc4)CC3)CC2)cc1 (stereo partly shown) [UB-181285] = 7.30
• CNC(=O)c1ccccc1Nc1nc(Nc2ccc(N3CCN(C(=O)N[C@H]4CC[C@@H](N(CCC#Cc5ccc6c(c5)CN(C5CCC(=O)NC5=O)C6=O)C(=O)OC(C)C(C)SSC[C@H](N)C(=O)N[C@H](Cc5ccccc5)C(=O)N[C@H]5CSSC[C@@H](C(=O)N[C@H](CO)[C@@H](C)O)NC(=O)[C@H]([C@@H](C)O)NC(=O)[C@H](CCCCN)NC(=O)[C@@H](Cc6c[nH]c7ccccc67)NC(=O)[C@H](Cc6ccccc6)NC5=O)CC4)CC3)cc2)ncc1Cl (stereo partly shown) [UB-181243] = 6.18
• CNC(=O)c1ccccc1Nc1nc(Nc2ccc(N3CCN(C(=O)N[C@H]4CC[C@@H](N(CCC#Cc5ccc6c(c5)CN(C5CCC(=O)NC5=O)C6=O)C(=O)OCCSSC[C@H](N)C(=O)N[C@H](Cc5ccccc5)C(=O)N[C@H]5CSSC[C@@H](C(=O)N[C@H](CO)[C@@H](C)O)NC(=O)[C@H]([C@@H](C)O)NC(=O)[C@H](CCCCN)NC(=O)[C@@H](Cc6c[nH]c7ccccc67)NC(=O)[C@H](Cc6ccccc6)NC5=O)CC4)CC3)cc2)ncc1Cl (stereo partly shown) [UB-181299] = 6.17
• CC[C@@H]1C(=O)N(C)c2cnc(Nc3ccc(-c4cn([C@H]5CC[C@@H](N(CCOCCC#Cc6cccc7c6CN(C6CCC(=O)NC6=O)C7=O)C(=O)OCCSSC[C@H](NC(=O)CC[C@H](NC(=O)c6ccc(NCc7cnc8nc(N)[nH]c(=O)c8n7)cc6)C(=O)O)C(=O)N[C@H](Cc6ccccc6)C(=O)N[C@H]6CSSC[C@@H](C(=O)N[C@H](CO)[C@@H](C)O)NC(=O)[C@H]([C@@H](C)O)NC(=O)[C@H](CCCCN)NC(=O)[C@@H](Cc7c[nH]c8ccccc78)NC(=O)[C@H](Cc7ccccc7)NC6=O)CC5)nn4)cc3OC)nc2N1C1CCCC1 (stereo partly shown) [UB-181339] = 6.34
• NC(=O)c1ccccc1Nc1nc(Nc2ccc(N3CCN(C(=O)NC4CCN(C(=O)CNCCC#Cc5ccc6c(c5)CN(C5CCC(=O)NC5=O)C6=O)CC4)CC3)cc2)ncc1Cl (stereo not shown) [UB-181239] = 6.88

###

Catalogue of EC50 readings, one per entry.
- System: Human Colon Cancer cells Colo205
- procedure.summary: Cell proliferation experiment (Alarm blue), Colo205
- Format: cell-based
- applied.conditions: Homo sapiens, COLO 205; Colo205 cells, 72 h culture; read-out: Anti cell proliferative activity EC50, Colo205
measured.property: EC50 (nM)

- C[C@H](NC(=O)CCCCCN1C(=O)C=CC1=O)C(=O)N[C@@H](C)C(=O)N[C@@H](CC(N)=O)C(=O)Nc1ccc(COC(=O)N(CCC#Cc2ccc3c(c2)CN(C2CCC(=O)NC2=O)C3=O)C2CCC(NC(=O)N3CCN(c4ccc(Nc5ncc(Cl)c(Nc6ccccc6C(N)=O)n5)cc4)CC3)CC2)cc1 (some centres unmarked): 136
- CNC(=O)c1ccccc1Nc1nc(Nc2ccc(N3CCN(C(=O)N[C@H]4CC[C@@H](N(CCC#Cc5ccc6c(c5)CN(C5CCC(=O)NC5=O)C6=O)C(=O)OCc5ccc(NC(=O)[C@H](CC(N)=O)NC(=O)[C@H](C)NC(=O)[C@H](C)NC(=O)COCCOC)cc5)CC4)CC3)cc2)ncc1Cl (some centres unmarked): 277

###

- Tested on: Human Small Cell Lung Cancer NCI-H82
- procedure.summary: Cell proliferation experiment (Alarm blue), H82
- Format: cell-based
- applied.conditions: Homo sapiens, NCI-H82, 72 h, H82 cells, 72 h culture; read-out: Anti cell proliferative activity EC50, H82
pEC50: −log10 of the molar value.
Catalogue of pEC50 readings, one per entry.
measured.property: pEC50

• NC(=O)c1ccccc1Nc1nc(Nc2ccc(N3CCN(C(=O)N[C@H]4CC[C@@H](NC5CN(CC#Cc6ccc7c(c6)CN(C6CCC(=O)NC6=O)C7=O)C5)CC4)CC3)cc2)ncc1Cl (stereo partly shown) = 6.83
• NC(=O)c1ccccc1Nc1nc(Nc2ccc(N3CCN(C(=O)N[C@H]4C[C@@H](NCCC#Cc5ccc6c(c5)CN(C5CCC(=O)NC5=O)C6=O)C4)CC3)cc2)ncc1Cl (stereo partly shown) = 7.68
• CNC(=O)c1ccccc1Nc1nc(Nc2ccc(N3CCC(NCC#Cc4ccc5c(c4)CN(C4CCC(=O)NC4=O)C5=O)CC3)cc2)ncc1Cl (stereo not shown) = 7.94
• NC(=O)c1ccccc1Nc1nc(Nc2ccc(N3CCN(C(=O)N[C@H]4C[C@@H](NCC#Cc5ccc6c(c5)CN(C5CCC(=O)NC5=O)C6=O)C4)CC3)cc2)ncc1Cl (stereo partly shown) = 7.62
